Measured Kd by item
Molecular target: T1, EsCas13d, nuclease-dead (Eubacterium siraeum, UniProt B0MS50, R295A;H300A;R849A;H854A)
T1 sequence: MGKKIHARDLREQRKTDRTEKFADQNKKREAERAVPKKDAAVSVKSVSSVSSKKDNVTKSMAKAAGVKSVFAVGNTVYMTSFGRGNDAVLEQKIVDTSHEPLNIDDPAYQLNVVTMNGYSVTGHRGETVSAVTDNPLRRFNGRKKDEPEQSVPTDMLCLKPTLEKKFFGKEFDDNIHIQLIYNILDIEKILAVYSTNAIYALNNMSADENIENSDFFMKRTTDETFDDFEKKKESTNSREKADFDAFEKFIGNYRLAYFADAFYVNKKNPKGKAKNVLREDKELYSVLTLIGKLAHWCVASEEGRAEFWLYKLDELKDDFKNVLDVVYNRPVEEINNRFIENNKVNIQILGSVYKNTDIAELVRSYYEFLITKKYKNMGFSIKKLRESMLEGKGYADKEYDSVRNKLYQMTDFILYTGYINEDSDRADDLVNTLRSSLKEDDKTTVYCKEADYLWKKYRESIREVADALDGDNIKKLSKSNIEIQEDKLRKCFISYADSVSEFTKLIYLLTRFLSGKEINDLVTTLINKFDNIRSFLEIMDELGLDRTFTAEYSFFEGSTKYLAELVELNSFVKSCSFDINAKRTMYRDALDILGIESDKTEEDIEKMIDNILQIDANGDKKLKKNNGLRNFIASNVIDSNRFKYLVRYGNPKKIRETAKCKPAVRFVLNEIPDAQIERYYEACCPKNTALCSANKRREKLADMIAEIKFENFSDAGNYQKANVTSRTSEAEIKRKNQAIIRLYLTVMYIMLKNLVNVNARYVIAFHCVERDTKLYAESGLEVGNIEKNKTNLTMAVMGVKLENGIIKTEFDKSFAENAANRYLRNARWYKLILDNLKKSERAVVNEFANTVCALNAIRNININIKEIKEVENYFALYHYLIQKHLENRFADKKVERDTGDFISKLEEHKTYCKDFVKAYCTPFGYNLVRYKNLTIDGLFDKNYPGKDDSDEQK
Assay: crRNA (strand 1, pre-loaded); Mg2+; 40 mM Tris-HCl pH 7.5, 150 mM NaCl, 6 mM MgCl2, 1 mM DTT, 0.1% Tween-20, 0.2 mg/ml BSA; 25 C; 10 min per concentration, then washed
Details: tags: His6-TwinStrep-SUMO cleaved; N-terminal SNAP kept (SNAP-Surface 488); label: 3' end held by stalled T7 RNA polymerase

Binder	Units Of Measure	Kd
target 3 insG 3' of 5,insG 3' of 1 (mixed) RNA 1: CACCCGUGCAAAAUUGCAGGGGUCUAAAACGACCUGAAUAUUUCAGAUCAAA RNA 2: GGGAAUGGAUCCACAUCUACGAAUUCGUUUUUGAUCUGAAAUAUUCAGGGUCGUGCAGAUCGGAAGAGCACACGU	nM	37
target 1 C4A,G5A (mixed) RNA 1: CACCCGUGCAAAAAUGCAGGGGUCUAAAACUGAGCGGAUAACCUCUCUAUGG RNA 2: GGGAAUGGAUCCACAUCUACGAAUUCGUACCAUAGAGAGGUUAUCCAAUCACCGAGAUCGGAAGAGCACACGU	nM	44
target 1 insG 3' of 8,insA 3' of 4 (mixed) RNA 1: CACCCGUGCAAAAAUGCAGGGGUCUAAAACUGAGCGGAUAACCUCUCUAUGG RNA 2: GGGAAUGGAUCCACAUCUACGAAUUCGUACCAUAGAGAGGUUAUGCCGCAUCACCGAGAUCGGAAGAGCACACGU	nM	12
target 2 MT 5'PFS UGA 3'PFS CCA (mixed) RNA 1: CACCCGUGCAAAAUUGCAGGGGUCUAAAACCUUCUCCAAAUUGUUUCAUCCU RNA 2: GGGAAUGGAUCCACAUCUACGAAUUCUGAAGGAUGAAACAAUUUGGAGAAGCCAAGAUCGGAAGAGCACACGU	nM	15.6
